All values here come from patent US20200148646A1.

# assay.system: human κ opioid receptor (Homo sapiens)
# Sequence (P41145 whole entry): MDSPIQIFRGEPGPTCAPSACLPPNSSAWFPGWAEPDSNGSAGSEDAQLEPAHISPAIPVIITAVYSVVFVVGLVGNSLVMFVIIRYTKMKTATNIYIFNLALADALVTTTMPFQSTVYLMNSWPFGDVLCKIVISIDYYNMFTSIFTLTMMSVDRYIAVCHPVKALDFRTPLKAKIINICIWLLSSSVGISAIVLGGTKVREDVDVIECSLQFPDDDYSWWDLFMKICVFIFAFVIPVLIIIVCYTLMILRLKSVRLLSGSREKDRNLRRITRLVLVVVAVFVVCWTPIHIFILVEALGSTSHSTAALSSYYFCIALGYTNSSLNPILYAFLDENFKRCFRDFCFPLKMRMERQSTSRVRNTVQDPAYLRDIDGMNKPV
# assay.name: κ-opioid receptor [35S]GTPγS functional assay, U-2 OS cells
# Format: biochemical
# Parameters: expressed in transfected cells; host or cells: U-2 OS cells (in-house membranes)
# test.parameters: U2-OS cells; relative to U69,593
# Method: Membranes from recombinant HEK-293 cells, CHO or U-2 OS cells expressing the recombinant human K opioid receptor (K) were prepared by lysing cells in ice cold hypotonic buffer (2.5 mM MgCl2, 50 mM HEPES, pH 7.4) (10 mL/10 cm dish) followed by homogenization with a tissue grinder/Teflon pestle. Functional [^35S]GTPγS binding assays were conducted as follows. […] Fifty μl/well scintillation cocktail (Perkin Elmer, Shelton, Conn.) was added and plates were counted in a Packard Top-Count for 1 min/well. […]
One threshold, 90%, splits the recorded Emax values: lower ones are 1.0, equal or higher ones are 0.0.

Query: Lab log: compare recorded Emax with 90%; is it strictly lower for CC(C)C(=O)N[C@H]1CC[C@]23CCN(CC4CC4)[C@H](Cc4ccc(O)cc42)[C@]3(O)C1 [Compound 46] ?
Result: 0.0

Query: I wonder whether O=C(O)CN[C@@H]1C[C@@]2(O)[C@H]3Cc4ccc(O)cc4[C@@]2(CCN3CC2CC2)C[C@@H]1O [Compound 40] has Emax below 90%. Can you tell?
Result: 1.0

Query: State whether 90% exceeds Emax recorded for N=C(N)NCCCN[C@@H]1CC[C@@]2(O)[C@H]3Cc4ccc(O)cc4[C@@]2(CCN3CC2CC2)C1 [Compound 15] .
Result: 0.0

Query: Lab note: confirm whether the reported Emax for this compound is below 90%, equality not counting. compound: N=C(N)NCCCC(=O)N[C@@H]1CC[C@@]2(O)[C@H]3Cc4ccc(O)cc4[C@@]2(CCN3CC2CC2)C1 [Compound 22]
Result: 0.0

Query: # check: Emax < 90% for O=C(N[C@H]1C[C@@]2(O)[C@H]3Cc4ccc(O)cc4[C@@]2(CCN3CC2CC2)C[C@H]1O)C1CC1 [Compound 64]
Result: 0.0

Query: Record CCC(=O)N[C@H]1C[C@@]2(O)[C@H]3Cc4ccc(O)cc4[C@@]2(CCN3CC2CC2)C[C@@H]1O [Compound 57] : is its Emax strictly below 90%?
Result: 0.0

Query: # check: Emax < 90% for CCC(C)C[C@H]1C[C@@]2(O)[C@H]3Cc4ccc(O)cc4[C@@]2(CCN3CC2CC2)C[C@H]1O (stereo partly shown) [Compound 53]
Result: 1.0

Query: # strict comparison: is reported Emax < 90%? input = CC(C)CC(=O)N[C@H]1C[C@@]2(O)[C@H]3Cc4ccc(O)cc4[C@@]2(CCN3CC2CC2)C[C@H]1O [Compound 60]
Result: 0.0

Query: Strictly below 90% in Emax? O=C(N[C@H]1C[C@@]2(O)[C@H]3Cc4ccc(O)cc4[C@@]2(CCN3CC2CC2)CC1O)C1CCCCC1 (stereo partly shown) [Compound 65]
Result: 0.0
